The reported measurements were obtained from ChEMBL document CHEMBL1124825.

Observed Ki values for Dihydrofolate reductase (Mus musculus, UniProt P00375) are listed in what follows.

CCC(CC1CNc2nc(N)nc(O)c2C1)c1ccc(C(=O)NC(CCC(=O)O)C(=O)O)cc1 (centres undefined); > 1000 nM
CC(CC1CNc2nc(N)nc(O)c2C1)c1ccc(C(=O)NC(CCC(=O)O)C(=O)O)cc1 (centres undefined); > 1000 nM
Nc1nc(O)c2c(n1)CCC(CNc1ccc(C(=O)NC(CCC(=O)O)C(=O)O)cc1)C2 (centres undefined); > 1000 nM

Kindly consider the entry below.
Query the reported Ki for Dihydrofolate reductase (Mus musculus, UniProt P00375); item: CC(Cc1cnc2nc(N)nc(N)c2c1)c1ccc(C(=O)NC(CCC(=O)O)C(=O)O)cc1 (centres undefined)
0.007 nM
